Test system: U2OS
Test: Incucyte cell viability with U2OS; note: filed as whole numbers so only -1 and 0 and 1 occur
Type: toxicity, cell-based
Conditions: human, 24 h, 10 µM, compound concentration 10 uM, replicate number 1, timepoint 24 hours
quantityName: Growth Rate
Please reply with the value in numeric form only.

Answer with Growth Rate of "O=C(NCc1ncc(C(F)(F)F)cc1Cl)c1ccc2c(c1)C1(CCS(=O)(=O)CC1)[C@@H](C1CC1)N2S(=O)(=O)c1ccc(F)cc1" measured for U2OS.
0

Report its Growth Rate with U2OS as the test system: "Cc1cc(NC(=O)c2cccc(S(F)(F)(F)(F)F)c2)cc(-n2ccn3nc(-c4cccnc4)cc23)c1"
0

Find the measured Growth Rate of "O=C1CCc2cc(Nc3cc(OC4CCOCC4)c([N+](=O)[O-])cc3Cl)ccc2N1" with U2OS as test system.
0

Specify the recorded Growth Rate for "CC1(C)CCC(C)(C)c2cc(C(=O)Nc3ccc(C(=O)O)cc3)ccc21" , system: U2OS.
1

Under U2OS, report Growth Rate for "Cc1noc([C@H]2C[C@@H](c3ccc(C(F)(F)F)cc3)CN(C(=O)N3CCS(=O)(=O)C3)C2)n1"
0

Provide measured Growth Rate on U2OS for "C=CC(=O)Nc1ccc2[nH]c(=O)n(C3CCN(Cc4ccc(-c5nc6cc[nH]c(=O)c6cc5-c5ccccc5)cc4)CC3)c2c1" please.
1

Provide the reported Growth Rate (system: U2OS) for CCc1nn(CCCN2CCN(c3cccc(Cl)c3)CC2)c(=O)n1CCOc1ccccc1.Cl [NEFAZODONE HYDROCHLORIDE]
0

Give Growth Rate; test system U2OS; molecule "Cl.Clc1cccc(COc2cncc(N3CCNCC3)n2)c1"
1

State the measured Growth Rate (U2OS) of "C[C@]12CC[C@@H]3c4ccc(O)cc4CC[C@H]3[C@@H]1CC[C@@H]2O"
0

For U2OS, give Growth Rate of the listed molecule: "COC(=O)/C=C/c1cccc(N(Cc2ccc(-c3ccc(N(C)C)cc3)cc2)C(=O)C2CCCCC2)c1"
0

# assay system U2OS: give Growth Rate of "COC(=O)C1=C(C)NC(C)=C(C(=O)OCCCN2CCC(c3ccccc3)(c3ccccc3)CC2)[C@H]1c1cccc([N+](=O)[O-])c1"
0

Please tell me the measured Growth Rate for "O=C(O)CC/C=C\C[C@@H]1CO[C@H](c2ccccc2Cl)O[C@@H]1c1ccccc1O" ; system: U2OS.
1

Look up and report measured Growth Rate (U2OS) for the following molecule: "O=C(Cc1ccccc1)Nc1nc2ccc(Cl)cc2c2nc(-c3ccco3)nn12"
1

Lab note: U2OS assay, enter Growth Rate for "COc1ccc(-c2ccc3cc(C(=O)O)ccc3c2)cc1C12CC3CC(CC(C3)C1)C2" here
0

Provide Growth Rate, system U2OS, entry "O=C(O)C1CN(Cc2ccc(OCc3ccc(Cl)c(Cl)c3)cc2)C1"
1

Enter Growth Rate (test system U2OS) for "C=CC(=O)Nc1cccc(Oc2nc(Nc3ccc(N4CCN(C)CC4)cc3OC)ncc2Cl)c1"
0

Report Growth Rate on U2OS for this entry: "COCCOc1nc(-c2ccc(Cl)nc2)nc2c1CN(C(=O)c1ncn3ccccc13)CC2"
0

====

Tested on: Fibroblast
Experiment: Multiplex assay against human fibroblast
Format: toxicity, cell-based
Settings: 24 h, 1 µM, compound concentration 1 uM, replicate 1
I'd appreciate it if you could supply Population Pyknosed Nuclei (%) values for the items below.
Express your answer in %, writing the number without its unit.

// fetch Population Pyknosed Nuclei (%); item: CC(C)c1noc(N2CCC(COc3ccc(-c4ccc(S(C)(=O)=O)cc4)nc3)CC2)n1 [GSK-1292263] ; system: Fibroblast
33

Answer with Population Pyknosed Nuclei (%) of "CC(C)OC(=O)N1CCC(Oc2ncnc3c2cnn3-c2ccc(S(C)(=O)=O)cc2F)CC1" measured for Fibroblast.
20

For Fibroblast, give the measured Population Pyknosed Nuclei (%) of the entry CCc1nn(CCCN2CCN(c3cccc(Cl)c3)CC2)c(=O)n1CCOc1ccccc1.Cl [NEFAZODONE HYDROCHLORIDE]
22

Determine reported Population Pyknosed Nuclei (%) for "O=c1cc(N2CCOCC2)oc2c(-c3cccc4c3sc3ccccc34)cccc12" ; test system: Fibroblast.
20
